assay.protocol: Plasma and lung epithelial lining fluid (ELF) pharmacokinetics in ICR mice
Format: in vivo
conditions: ICR, mouse, lung epithelial lining fluid (ELF); 20 mg/kg IP; read-out: mean ELF AUC0-72
Numbered stars: 1 amine (or outer) side, 2 acyl side, 3 side chain; on linkers, the order of the positions; unused ones are H or OH. Bridge positions count the residues as written; N and C are the ends. Square brackets hold non-standard residues; d marks the D form. Peptide text beside a SMILES is read from it. * marks the point of attachment. ξ: configuration not given here. Orn(4R-OH,5R-OCH2CH2NMe3+) = C[N+](C)(C)CCO[C@@H](N[*:3])[C@H](O)C[C@H](N[*:1])C(=O)[*:2]; pTerphenylCO(4''-OnC5H11) = CCCCCOc1ccc(-c2ccc(-c3ccc(C(=O)*)cc3)cc2)cc1; hTyr(3S-OH,4S-OH) = N[C@H](C(=O)O)[C@H](O)[C@@H](O)c1ccc(O)cc1; X1 = C[C@H]1CN([*:1])C(C(=O)[*:2])C1O; Hyp = O=C(O)[C@@H]1C[C@@H](O)CN1; ξT = CC(O)C(N)C(=O)O
observed.property: AUC(0-t) (µg·h/mL)

>>> val("CCCCCOc1ccc(-c2ccc(-c3ccc(C(=O)N[C@H]4C[C@@H](O)[C@@H](OCC[N+](C)(C)C)NC(=O)C5C(O)[C@@H](C)CN5C(=O)[C@H]([C@@H](C)O)NC(=O)[C@H]([C@H](O)[C@@H](O)c5ccc(O)cc5)NC(=O)[C@@H]5C[C@@H](O)CN5C(=O)C(C(C)O)NC4=O)cc3)cc2)cc1 (stereo partly drawn) [CD101] ({pTerphenylCO(4''-OnC5H11)}-[Orn(4R-OH,5R-OCH2CH2NMe3+)][ξT][Hyp][hTyr(3S-OH,4S-OH)]T[X1]; lactam 1-C)")
606

----------
assay.protocol: Tissue distribution in SD rats after IV dose
Type: in vivo
conditions: Sprague-Dawley, rat; all tissues studied; 5 mg/kg IV; read-out: t1/2 in tissues
Method: The in vitro activity of CD101 was evaluated against 153 A. fumigatus clinical isolates collected as part of the 2014 and 2015 JMI international SENTRY surveillance program. Susceptibility was determined by measuring the minimal effective concentration (MEC) values in accordance with CLSI broth microdilution guidelines (M38-A2). In vivo tissue distribution of CD101 in SD rats (N=3/time up to 5 d) after a 5 mg/kg IV CD101 dose. Plasma/tissue concentrations were measured by LC-MS/MS.
Numbered stars: 1 amine (or outer) side, 2 acyl side, 3 side chain; on linkers, the order of the positions; unused ones are H or OH. Bridge positions count the residues as written; N and C are the ends. Square brackets hold non-standard residues; d marks the D form. Peptide text beside a SMILES is read from it. * marks the point of attachment. ξ: configuration not given here. Orn(4R-OH,5R-OCH2CH2NMe3+) = C[N+](C)(C)CCO[C@@H](N[*:3])[C@H](O)C[C@H](N[*:1])C(=O)[*:2]; pTerphenylCO(4''-OnC5H11) = CCCCCOc1ccc(-c2ccc(-c3ccc(C(=O)*)cc3)cc2)cc1; hTyr(3S-OH,4S-OH) = N[C@H](C(=O)O)[C@H](O)[C@@H](O)c1ccc(O)cc1; X1 = C[C@H]1CN([*:1])C(C(=O)[*:2])C1O; Hyp = O=C(O)[C@@H]1C[C@@H](O)CN1; ξT = CC(O)C(N)C(=O)O
observed.property: half-life

>>> val("CCCCCOc1ccc(-c2ccc(-c3ccc(C(=O)N[C@H]4C[C@@H](O)[C@@H](OCC[N+](C)(C)C)NC(=O)C5C(O)[C@@H](C)CN5C(=O)[C@H]([C@@H](C)O)NC(=O)[C@H]([C@H](O)[C@@H](O)c5ccc(O)cc5)NC(=O)[C@@H]5C[C@@H](O)CN5C(=O)C(C(C)O)NC4=O)cc3)cc2)cc1 (stereo partly drawn) [CD101] ({pTerphenylCO(4''-OnC5H11)}-[Orn(4R-OH,5R-OCH2CH2NMe3+)][ξT][Hyp][hTyr(3S-OH,4S-OH)]T[X1]; lactam 1-C)")
"40 to 77 h"
